System: VDR homodimer (NR concentration 270 nM)
Assay: PBM binding z-score (relative to random genomic background probes); higher = stronger binding; sequences stand for … in GC…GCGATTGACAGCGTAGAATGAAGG
Entries and their measured PBM binding z-score follow.
Just the number, please.

INSERT INTO assay_data (query_sequence, assay_result) VALUES
  ('TCATATAGGTAAATGCAAGGTGAAAGTCCGATCT', 0.698),
  ('CCTTACGGGTCACTCCAGGTTATAGAATCGGAGT', 1.39),
  ('GCTAGCAGGCCTTTTGGGTCACTCAATGACGGGC', -0.536),
  ('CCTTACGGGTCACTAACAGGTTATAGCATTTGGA', 1.29);

### Prompt Requested field: PBM binding z-score. Item: CCGACTGGGGCAAGTTTACCATAACGCACAGCCA
### Response 0.132

### Prompt Requested field: PBM binding z-score. Item: TCTAGCAGGCCAGAGGGACACTCAAGAGGTACGG
### Response -0.834
